Where do the numbers come from? From paper doi:10.1101/2023.02.27.530254.

Known pKi of a selection of compounds
- TARGET_SYSTEM: CB1 (Rattus norvegicus, UniProt P20272)
- Construct: membrane preparations from rat brain (source of CB1); tissue Bioivt RAT00BRAINMZN; host or cells: rat brain
- Sequence (P20272 whole entry): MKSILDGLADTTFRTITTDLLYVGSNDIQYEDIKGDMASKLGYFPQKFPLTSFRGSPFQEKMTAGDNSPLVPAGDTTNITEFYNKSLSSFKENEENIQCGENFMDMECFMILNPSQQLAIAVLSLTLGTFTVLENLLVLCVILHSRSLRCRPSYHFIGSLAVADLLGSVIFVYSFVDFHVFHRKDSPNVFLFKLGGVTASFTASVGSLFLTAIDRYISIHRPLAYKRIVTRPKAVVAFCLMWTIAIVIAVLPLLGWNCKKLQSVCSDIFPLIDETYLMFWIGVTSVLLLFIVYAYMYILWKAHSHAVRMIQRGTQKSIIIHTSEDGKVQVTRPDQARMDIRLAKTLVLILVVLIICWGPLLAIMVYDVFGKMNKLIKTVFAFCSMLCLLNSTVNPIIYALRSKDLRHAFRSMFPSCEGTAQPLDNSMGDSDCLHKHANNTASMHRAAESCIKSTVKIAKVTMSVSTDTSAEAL
- TEST_PROTOCOL: Radioligand competition binding with [3H]-CP-55,940, rat brain membranes
- MEASUREMENT_SETUP: rCB1 binding Ki [95% CI], [3H]-CP-55,940 competition, rat brain membranes
pKi: −log10 of the molar value.

# COMPOUND, pKi
records = [
    ("Cc1cc(C(=O)NC(C)(c2ccco2)c2ccco2)nn1-c1cccc(C(F)(F)F)c1 [‘4936]", 8.12),
    ("Cc1cc(C(=O)NC(c2ccccc2)c2ccco2)nn1-c1cccc(C(F)(F)F)c1 (stereo not drawn) [‘1081]", 6.94),
    ("CC(=O)C(c1cccs1)N(C)C(=O)c1cc(C)n(-c2cccc(C(F)(F)F)c2)n1 (stereo not drawn) [‘6829]", 5.98),
    ("COC(=O)[C@@H](c1cccs1)N(C)C(=O)c1cc(C)n(-c2cccc(C(F)(F)F)c2)n1 [‘6000]", 5.84),
    ("Cn1nc(-c2nnc(C(C)(C)Oc3ccc(C(F)(F)F)cc3)o2)c2ccccc2c1=O [‘2153]", 6.79),
    ("Cc1c(C(=O)OCC2CSc3ccccc3O2)cnn1Cc1ccccc1 (stereo not drawn) [‘7800]", 6.00),
    ("Cc1cc(C(=O)NC(c2ccco2)c2ccco2)nn1-c1cccc(C(F)(F)F)c1 [‘1090]", 7.04),
    ("COC(=O)C(NC(=O)c1cc(C)n(-c2cccc(C(F)(F)F)c2)n1)c1cccs1 (stereo not drawn) [‘60154]", 7.35),
    ("COC(=O)C(NC(=O)c1cc(C)n(-c2cccc(C#N)c2)n1)c1ccsc1 (stereo not drawn) [‘31604]", 6.10),
]

###

Known Emax of a selection of compounds
- TARGET_SYSTEM: CB1 (Rattus norvegicus)
- Construct: membrane preparations from rat brain (source of CB1); tissue Bioivt RAT00BRAINMZN; host or cells: rat brain
- TEST_PROTOCOL: Radioligand competition binding with [3H]-CP-55,940, rat brain membranes
- MEASUREMENT_SETUP: maximal radioligand displacement; read-out: rCB1 binding Emax [SEM]
- Procedure: The results were analyzed using nonlinear regression to determine the IC50 and Ki values for each ligand (Prism by GraphPad Software, Inc., San Diego, CA). The Ki values are expressed as the mean of two to three experiments each performed in triplicate.

# COMPOUND, RESULT_UNIT, Emax
measured = [
    ("COC(=O)[C@@H]1[C@@H]2CCC[C@@H]2CN1C(=O)c1cc(C)n(-c2cccc(C(F)(F)F)c2)n1", "%", 106),
    ("Cc1cc(C(=O)N2CC3(CCC3)C2C2CCCO2)nn1-c1cccc(C(F)(F)F)c1 (centres unmarked)", "%", 112),
    ("Cc1cc(C(=O)N(C)C(c2ccccc2)c2ccco2)nn1-c1cccc(C(F)(F)F)c1 (centres unmarked)", "%", 94),
    ("CCCCCCC(C)(C)c1cc(O)c2c(c1)OC(C)(C)C1CCC(=O)CC21 (centres unmarked) [Nabilone, reference compound]", "%", 81),
    ("COC(=O)C(C)(NC(=O)c1cc(C)n(-c2cccc(C(F)(F)F)c2)n1)c1cccs1 (centres unmarked)", "%", 99),
    ("COC(=O)C(c1ccco1)N(C)C(=O)c1cc(C)n(-c2cccc(C(F)(F)F)c2)n1 (centres unmarked)", "%", 108),
    ("COC(=O)[C@H](c1cccs1)N(C)C(=O)c1cc(C)n(-c2cccc(C(F)(F)F)c2)n1", "%", 97),
    ("N#Cc1cccc(OCc2ccoc2C(=O)OCC2CSc3ccccc3O2)c1 (centres unmarked)", "%", 104),
]

###

- TARGET_SYSTEM: hCB1 (Homo sapiens, UniProt P21554)
- Sequence (P21554 whole entry): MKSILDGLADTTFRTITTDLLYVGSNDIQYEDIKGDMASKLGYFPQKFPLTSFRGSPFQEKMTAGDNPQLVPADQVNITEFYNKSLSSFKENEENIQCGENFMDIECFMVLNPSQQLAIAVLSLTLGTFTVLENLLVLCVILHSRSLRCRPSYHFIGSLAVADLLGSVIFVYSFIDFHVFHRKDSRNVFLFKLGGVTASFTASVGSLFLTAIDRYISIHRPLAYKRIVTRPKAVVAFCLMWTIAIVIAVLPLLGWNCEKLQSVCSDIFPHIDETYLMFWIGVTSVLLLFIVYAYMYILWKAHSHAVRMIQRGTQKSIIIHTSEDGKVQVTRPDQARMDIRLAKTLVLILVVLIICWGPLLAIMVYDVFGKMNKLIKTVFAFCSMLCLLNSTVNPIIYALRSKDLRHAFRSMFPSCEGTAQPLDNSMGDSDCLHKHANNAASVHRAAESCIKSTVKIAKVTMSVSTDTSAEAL
- TEST_PROTOCOL: bioSens-All ebBRET effector biosensor signaling profiling, HEK293
- Type: cell-based
- Parameters: host or cells: HEK293 (HEK293SL clone), transient
- MEASUREMENT_SETUP: HEK293, read-out: hCB1 Gz Emax [95% CI]
Known Emax of a selection of compounds

# COMPOUND, Emax (%)
data = [
    ("Cc1cc(C(=O)NC(c2ccco2)c2ccco2)nn1-c1cccc(C(F)(F)F)c1 [‘1090]", 115),
    ("COC(=O)[C@@H]1[C@@H]2CCC[C@@H]2CN1C(=O)c1cc(C)n(-c2cccc(C(F)(F)F)c2)n1 [‘6439]", 162),
    ("COC(=O)C(C)(NC(=O)c1cc(C)n(-c2cccc(C(F)(F)F)c2)n1)c1cccs1 (stereo not drawn) [‘4042]", 97),
    ("COC(=O)C(NC(=O)c1cc(C)n(-c2cccc(F)c2)n1)c1cccs1 (stereo not drawn) [‘51486]", 130),
    ("Cc1cc(C(=O)NC(c2ccccc2)c2ccco2)nn1-c1cccc(C(F)(F)F)c1 (stereo not drawn) [‘1081]", 72),
    ("CC(=O)C(c1cccs1)N(C)C(=O)c1cc(C)n(-c2cccc(C(F)(F)F)c2)n1 (stereo not drawn) [‘6829]", 70),
    ("Cc1cc(C(=O)N2CC3(CCC3)[C@H]2[C@H]2CCCO2)nn1-c1cccc(C(F)(F)F)c1 [‘3737b]", 231),
    ("COC(=O)[C@@](C)(NC(=O)c1cc(C)n(-c2cccc(C(F)(F)F)c2)n1)c1cccs1 [‘1350]", 94),
    ("Cc1cc(C(=O)N2CC3(CCC3)[C@H]2[C@@H]2CCCO2)nn1-c1cccc(C(F)(F)F)c1 [‘3737a]", 140),
]

###

- TARGET_SYSTEM: hCB1 (Homo sapiens, UniProt P21554)
- TEST_PROTOCOL: bioSens-All ebBRET effector biosensor signaling profiling, HEK293
- Assay type: cell-based
- Parameters: host or cells: HEK293 (HEK293SL clone), transient
- MEASUREMENT_SETUP: hCB1 G15 pEC50 [95% CI], G15 sensor
MEASUREMENT_LABEL: EC50 (nM)

# MOLECULE, TARGET_SYSTEM, RECORDED_NUMBER
data = [
    ("COC(=O)C(C)(NC(=O)c1cc(C)n(-c2cccc(C(F)(F)F)c2)n1)c1cccs1 (centres unmarked) [‘4042]", "hCB1 (Homo sapiens, UniProt P21554)", 0.372),
    ("COC(=O)[C@@](C)(NC(=O)c1cc(C)n(-c2cccc(C(F)(F)F)c2)n1)c1cccs1 [‘1350]", "hCB1 (Homo sapiens, UniProt P21554)", 0.219),
]

###

- TARGET_SYSTEM: CB1 (Rattus norvegicus)
- Construct: membrane preparations from rat brain (source of CB1); tissue Bioivt RAT00BRAINMZN; host or cells: rat brain
- TEST_PROTOCOL: Radioligand competition binding with [3H]-CP-55,940, rat brain membranes
- MEASUREMENT_SETUP: rCB1 binding Ki [95% CI], [3H]-CP-55,940 competition, rat brain membranes
Known log10(Ki) of a selection of compounds
MEASUREMENT_LABEL: log10(Ki) (log10 of the value in nM)

# COMPOUND, log10(Ki)
rows = [
    ("Cc1nc(CC2CC2)oc1-c1nc(Cc2cc3c(cc2Br)OCO3)no1", 3.61),
    ("COC(=O)[C@@H]1[C@@H]2CCC[C@@H]2CN1C(=O)c1cc(C)n(-c2cccc(Cl)c2)n1", 3.08),
    ("Cc1cc(C(=O)NC(C)(c2ccccc2)c2ccco2)nn1-c1cccc(C(F)(F)F)c1 (stereo not drawn)", 0.90),
    ("Cc1cc(C(=O)NC(c2ccccc2)c2ccco2)nn1-c1cccc(C#N)c1 (stereo not drawn)", 2.48),
    ("Cc1nn(Cc2ccc(Cl)cc2)c(C)c1C(=O)OCC1CSc2ccccc2O1 (stereo not drawn)", 2.92),
    ("Cn1nc(-c2nnc(C(C)(C)Oc3ccc(Cl)cc3)o2)c2ccccc2c1=O", 2.84),
    ("COC(=O)C(NC(=O)c1cc(C)n(-c2cccc(F)c2)n1)c1cccs1 (stereo not drawn)", 2.86),
    ("N#Cc1cccc(OCc2ccoc2C(=O)OCC2CSc3ccccc3O2)c1 (stereo not drawn)", 2.94),
    ("COC(=O)C(c1ccco1)N(C)C(=O)c1cc(C)n(-c2cccc(C(F)(F)F)c2)n1 (stereo not drawn)", 2.97),
]

###

- TARGET_SYSTEM: hCB1 (Homo sapiens, UniProt P21554)
- TEST_PROTOCOL: bioSens-All ebBRET effector biosensor signaling profiling, HEK293
- Assay type: cell-based
- Parameters: host or cells: HEK293 (HEK293SL clone), transient
- MEASUREMENT_SETUP: hCB1 GoB EC50 [95% CI]
- Description: ebBRET-based effector membrane translocation biosensor assays were conducted at Domain Therapeutics NA Inc. (Montreal, QC, Canada) as previously described. […] During the incubation, HEK293 cells were detached, counted, and re-suspended in maintenance medium to a 350,000 cells per mL density. […] The data were analyzed using the four-parameter logistic non-linear regression model in GraphPad Prism 9.1 and data were presented as means ± CIs of 1–4 independent experiments. […]
Quick rule for you: EC50 under 800 nM gets yes, anything else gets no.

# COMPOUND, GROUP_LABEL
rows = [
    ("COC(=O)[C@@H]1[C@@H]2CCC[C@@H]2CN1C(=O)c1cc(C)n(-c2cccc(C(F)(F)F)c2)n1", "yes"),
    ("Cc1c(C(=O)OCC2CSc3ccccc3O2)cnn1Cc1ccccc1 (stereo not shown)", "yes"),
    ("Cn1nc(-c2nnc(C(C)(C)Oc3ccc(Cl)cc3)o2)c2ccccc2c1=O", "no"),
    ("Cc1nn(Cc2ccc(Cl)cc2)c(C)c1C(=O)OCC1CSc2ccccc2O1 (stereo not shown)", "no"),
    ("CC(=O)C(c1cccs1)N(C)C(=O)c1cc(C)n(-c2cccc(C(F)(F)F)c2)n1 (stereo not shown)", "no"),
    ("Cc1cc(C(=O)N2CC3(CCC3)[C@H]2[C@H]2CCCO2)nn1-c1cccc(C(F)(F)F)c1 [‘3737b]", "no"),
    ("COC(=O)C(NC(=O)c1cc(C)n(-c2cccc(F)c2)n1)c1cccs1 (stereo not shown)", "yes"),
    ("Cc1cc(C(=O)N2CC3(CCC3)[C@H]2[C@@H]2CCCO2)nn1-c1cccc(C(F)(F)F)c1 [‘3737a]", "no"),
    ("Cn1nc(-c2nnc(C(C)(C)Oc3ccc(C(F)(F)F)cc3)o2)c2ccccc2c1=O", "no"),
]
